Test system: Vincristine-resistant strain P388/VCR cells of mouse leukemia P388 cells
Assay: Potentiating effect on vincristine in mice having vincristine-resistant mouse leukemia (survival)
Type: in vivo, mouse (female CDFI mice)
Details: compound 30 mg/kg + vincristine 100 ug/kg, peritoneal, once a day for 5 days; control = 100
QUANTITY KIND: T/C (rate of life prolongation)

| COMPOUND | QUANTITY KIND | READING |
| --- | --- | --- |
| CN(CCCN1c2ccccc2CCc2ccccc21)CC(O)COc1cccc2ncccc12 (stereo not drawn) | T/C (rate of life prolongation) | 105% |
| O=C(C(c1ccccc1)c1ccccc1)N1CCN(CC(O)COc2cccc3ncccc23)CC1 (stereo not drawn) | T/C (rate of life prolongation) | 132% |
| OC(COc1cccc2ncccc12)CN1CCC(=C2c3ccccc3CCc3ccccc32)CC1 (stereo not drawn) | T/C (rate of life prolongation) | 134% |
| OC(COc1cccc2ncccc12)CN1CCN(C2c3ccccc3C=Cc3ccccc32)CC1 (stereo not drawn) | T/C (rate of life prolongation) | 133% |
| OC(COc1cccc2ncccc12)CN1CCN(C2c3ccccc3CCc3ccccc32)CC1 (stereo not drawn) | T/C (rate of life prolongation) | 136% |
| Cc1cc(C)c2c(OCC(O)CN3CCN(C(c4ccccc4)c4ccccc4)CC3)cccc2n1 (stereo not drawn) | T/C (rate of life prolongation) | 124% |
| OC(COc1cccc2ncccc12)CN1CCC(=C2c3ccccc3C=Cc3ccccc32)CC1 (stereo not drawn) | T/C (rate of life prolongation) | 129% |
| Cc1cc(C)c2c(OCC(O)CN3CCN(C4c5ccccc5CCc5ccccc54)CC3)cccc2n1 (stereo not drawn) | T/C (rate of life prolongation) | 132% |
| O=C(N1CCN(CC(O)COc2cccc3ncccc23)CC1)N1c2ccccc2CCc2ccccc21 (stereo not drawn) | T/C (rate of life prolongation) | 117% |
